Where do these numbers come from? They come from ChEMBL document CHEMBL1136114.

target: 5-hydroxytryptamine receptor 1A (Homo sapiens); experiment: Stimulation of binding of [35S]GTP-gamma-S, to G protein mediated by human cloned 5-hydroxytryptamine 1A receptor tested in vitro at 1 uM.; type: functional
ENDPOINT: Stimulation (%)
Hi! Could you send only the number? It should be in %, unit omitted.

Consider the reported Stimulation for these compounds:
COc1cccc2sc([C@H]3CCN(C[C@H](O)COc4cccc5[nH]ccc45)[C@H](C)C3)cc12    4.41
COc1cccc2sc([C@@H]3CCN(C[C@H](O)COc4cccc5[nH]ccc45)[C@@H](C)C3)cc12    7.77

Next up:
Noted for C[C@H]1C[C@H](c2cc3cc(F)ccc3s2)CCN1C[C@H](O)COc1cccc2[nH]ccc12 : its Stimulation reads 7.68

* * *

target: Sodium-dependent serotonin transporter (Rattus norvegicus, UniProt P31652); assay: In vitro affinity at the 5-HT reuptake site using [3H]paroxetine as radioligand in rat frontal cortex membranes
Sequence (P31652 whole entry): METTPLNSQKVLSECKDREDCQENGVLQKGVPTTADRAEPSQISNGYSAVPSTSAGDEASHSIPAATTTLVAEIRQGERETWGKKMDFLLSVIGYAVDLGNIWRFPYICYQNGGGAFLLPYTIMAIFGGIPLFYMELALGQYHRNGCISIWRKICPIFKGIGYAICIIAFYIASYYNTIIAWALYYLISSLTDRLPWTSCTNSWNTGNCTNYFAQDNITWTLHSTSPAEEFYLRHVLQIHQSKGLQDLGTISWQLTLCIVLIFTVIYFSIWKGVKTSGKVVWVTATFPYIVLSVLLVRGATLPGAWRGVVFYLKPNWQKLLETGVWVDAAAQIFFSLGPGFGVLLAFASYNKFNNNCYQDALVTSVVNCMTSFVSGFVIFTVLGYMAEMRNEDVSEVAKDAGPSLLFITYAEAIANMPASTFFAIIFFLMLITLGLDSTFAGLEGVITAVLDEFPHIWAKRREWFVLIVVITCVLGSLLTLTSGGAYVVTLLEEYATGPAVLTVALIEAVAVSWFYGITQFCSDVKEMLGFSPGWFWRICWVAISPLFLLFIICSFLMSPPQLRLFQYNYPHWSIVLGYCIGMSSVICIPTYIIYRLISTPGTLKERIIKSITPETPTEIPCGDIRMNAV
Ki listing for selected compounds.
Hi! Could you send only the number? It should be in nM, unit omitted.

O[C@H](COc1cccc2[nH]ccc12)CN1[C@@H]2CC[C@H]1C[C@H](c1cc3ccccc3s1)C2    0.07
C[C@@H]1C[C@@H](c2cc3cc(F)ccc3s2)CCN1C[C@H](O)COc1cccc2[nH]ccc12    0.99
COc1ccc2sc([C@@H]3CCN(C[C@H](O)COc4cccc5[nH]ccc45)[C@@H](C)C3)cc2c1OC    10.8
C[C@H]1C[C@H](c2cc3ccccc3s2)CCN1C[C@H](O)COc1cccc2[nH]ccc12    0.51
C[C@H]1C[C@@H](c2cc3cc(F)ccc3s2)CCN1C[C@H](O)COc1cccc2[nH]ccc12    4.22

Noted for COc1cccc2sc([C@@H]3C[C@H]4CC[C@@H](C3)N4C[C@H](O)COc3cccc4[nH]ccc34)cc12 (stereo in doubt; exo) : its Ki reads 1.31

Noted for C[C@@H]1C[C@H](c2cc3cc(F)ccc3s2)CCN1C[C@H](O)COc1cccc2[nH]ccc12 : its Ki reads 3.53

Noted for C[C@H]1C[C@H](c2cc3cc(Cl)ccc3s2)CCN1C[C@H](O)COc1cccc2[nH]ccc12 : its Ki reads 0.58

* * *

Target: 5-hydroxytryptamine receptor 1A (Homo sapiens, UniProt P08908)
Sequence (P08908 whole entry): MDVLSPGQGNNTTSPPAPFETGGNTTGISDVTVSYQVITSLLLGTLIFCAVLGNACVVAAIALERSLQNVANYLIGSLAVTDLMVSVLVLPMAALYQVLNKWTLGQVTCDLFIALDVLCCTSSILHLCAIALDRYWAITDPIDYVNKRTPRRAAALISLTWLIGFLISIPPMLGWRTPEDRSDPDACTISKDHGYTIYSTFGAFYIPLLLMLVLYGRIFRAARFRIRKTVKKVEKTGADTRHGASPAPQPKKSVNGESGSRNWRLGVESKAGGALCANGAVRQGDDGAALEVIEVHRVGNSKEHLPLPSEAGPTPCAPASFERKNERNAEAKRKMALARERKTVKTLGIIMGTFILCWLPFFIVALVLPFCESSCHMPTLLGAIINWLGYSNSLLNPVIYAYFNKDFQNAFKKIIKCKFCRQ
Assay: Inhibition of 5-HT induced [35S]GTP-gamma-S, binding at human cloned 5-HT 1A receptors.
Assay type: functional
pKi listing for selected compounds.
Conceptually, pKi converts a concentration in mol/L into minus its log10.

Log: 5-hydroxytryptamine receptor 1A (Homo sapiens, UniProt P08908), compound O[C@H](COc1cccc2[nH]ccc12)CN1[C@@H]2CC[C@H]1C[C@H](c1cc3ccccc3s1)C2 , pKi = 7.15

Log: 5-hydroxytryptamine receptor 1A (Homo sapiens, UniProt P08908), compound C[C@H]1C[C@H](c2cc3ccccc3s2)CCN1C[C@H](O)COc1cccc2[nH]ccc12 , pKi = 8.48

Log: 5-hydroxytryptamine receptor 1A (Homo sapiens, UniProt P08908), compound C[C@@H]1C[C@H](c2cc3cc(F)ccc3s2)CCN1C[C@H](O)COc1cccc2[nH]ccc12 , pKi = 8.75

Log: 5-hydroxytryptamine receptor 1A (Homo sapiens, UniProt P08908), compound COc1ccc2cc([C@@H]3CCN(C[C@H](O)COc4cccc5[nH]ccc45)[C@@H](C)C3)sc2c1 , pKi = 8.53

Log: 5-hydroxytryptamine receptor 1A (Homo sapiens, UniProt P08908), compound C[C@H]1C[C@H](c2cc3ccc(F)cc3s2)CCN1C[C@H](O)COc1cccc2[nH]ccc12 , pKi = 8.13

Log: 5-hydroxytryptamine receptor 1A (Homo sapiens, UniProt P08908), compound C[C@H]1C[C@H](c2cc3cc(F)ccc3s2)CCN1C[C@H](O)COc1cccc2[nH]ccc12 , pKi = 8.25

Log: 5-hydroxytryptamine receptor 1A (Homo sapiens, UniProt P08908), compound C[C@@H]1C[C@@H](c2cc3cc(F)ccc3s2)CCN1C[C@H](O)COc1cccc2[nH]ccc12 , pKi = 7.78

Log: 5-hydroxytryptamine receptor 1A (Homo sapiens, UniProt P08908), compound COc1cccc2sc([C@@H]3C[C@H]4CC[C@@H](C3)N4C[C@H](O)COc3cccc4[nH]ccc34)cc12 (stereo in doubt; exo) , pKi = 7.73

* * *

target: 5-hydroxytryptamine receptor 1A (Homo sapiens) (UniProt P08908); experiment: Stimulation of binding of [35S]GTP-gamma-S, to G protein mediated by human cloned 5-hydroxytryptamine 1A receptor tested in vitro at 1 uM.; type: functional
ENDPOINT: Stimulation (%)
Hi! Could you send only the number? It should be in %, unit omitted.

Cc1cccc2sc([C@@H]3CCN(C[C@H](O)COc4cccc5[nH]ccc45)[C@@H](C)C3)cc12    8.48

Log: 5-hydroxytryptamine receptor 1A (Homo sapiens) (UniProt P08908), compound O[C@H](COc1cccc2[nH]ccc12)CN1[C@@H]2CC[C@H]1C[C@H](c1cc3ccccc3s1)C2 , Stimulation = 9.26

Log: 5-hydroxytryptamine receptor 1A (Homo sapiens) (UniProt P08908), compound C[C@H]1C[C@H](c2cc3ccc(Cl)cc3s2)CCN1C[C@H](O)COc1cccc2[nH]ccc12 , Stimulation = 8.49

Log: 5-hydroxytryptamine receptor 1A (Homo sapiens) (UniProt P08908), compound COc1ccc2cc([C@@H]3CCN(C[C@H](O)COc4cccc5[nH]ccc45)[C@@H](C)C3)sc2c1 , Stimulation = 5.26

Log: 5-hydroxytryptamine receptor 1A (Homo sapiens) (UniProt P08908), compound C[C@H]1C[C@H](c2cc3c(F)cccc3s2)CCN1C[C@H](O)COc1cccc2[nH]ccc12 , Stimulation = 5.37

Log: 5-hydroxytryptamine receptor 1A (Homo sapiens) (UniProt P08908), compound C[C@H]1C[C@H](c2cc3ccc(F)cc3s2)CCN1C[C@H](O)COc1cccc2[nH]ccc12 , Stimulation = 5.32

Log: 5-hydroxytryptamine receptor 1A (Homo sapiens) (UniProt P08908), compound C[C@@H]1C[C@@H](c2cc3cc(F)ccc3s2)CCN1C[C@H](O)COc1cccc2[nH]ccc12 , Stimulation = 6.35

Log: 5-hydroxytryptamine receptor 1A (Homo sapiens) (UniProt P08908), compound C[C@@H]1C[C@H](c2cc3cc(F)ccc3s2)CCN1C[C@H](O)COc1cccc2[nH]ccc12 , Stimulation = 7.21
